system-tested: UniProt Q96EB6
measurement-protocol: Trp mass spectrometry assay of SIRT1 activation
Format: biochemical
setup-conditions: Trp peptide assay; EC1.5 = concentration that results in 150% activation of SIRT1
Method: Mass spectrometry based assays were used to identify modulators of SIRT1 activity. […] The peptide was labeled with the fluorophore STMR (excitation 540 nm/emission 580 nm) at the C-terminus. The sequence of the peptide substrate was based on p53 with several modifications. […] The Trp mass spectrometry assay was conducted as follows. […] Test compound was added at varying concentrations to this reaction mixture and the resulting reactions were monitored. […]
measurement-label: TRP Activity (EC1.5)

Cc1cc(-c2ccc3c(n2)N(C(=O)Nc2ccccn2)[C@H]2CCCN3C2)ccn1 ... A (A (EC1.5<1 μM))
Cc1cc(-c2ccc3c(n2)N(C(=O)Nc2ccc4[nH]cnc4n2)[C@H]2CCN3C2)ccn1 ... B (B (EC1.5 1-25 μM))
Cc1cc(-c2ccc3c(n2)N(C(=O)Nc2cc4cn[nH]c4cn2)[C@H]2CCN3C2)ccn1 ... A (A (EC1.5<1 μM))
O=C(Nc1ccnc(OC[C@@H](O)CO)c1)N1c2nc(-c3cccc(C(F)(F)F)c3)ccc2N2CC[C@H]1C2 ... A (A (EC1.5<1 μM))

For each of the compounds below, state TRP Activity (EC1.5).
1. Cc1cc(-c2ccc3c(n2)N(C(=O)Nc2cccnn2)[C@H]2CCCN3C2)ccn1
2. Cc1cc(-c2ccc3c(n2)N(C(=O)N2CCN(C)CC2)[C@H]2CCN3C2)ccn1
3. CCc1cnc(NC(=O)N2c3nc(-c4ccnc(C)c4)ccc3N3CC[C@H]2C3)cn1

Solution:
1. A (A (EC1.5<1 μM))
2. C (C (EC1.5>25 μM))
3. A (A (EC1.5<1 μM))

----------
system-tested: SIRT1 (Homo sapiens)
Sequence (Q96EB6 whole entry): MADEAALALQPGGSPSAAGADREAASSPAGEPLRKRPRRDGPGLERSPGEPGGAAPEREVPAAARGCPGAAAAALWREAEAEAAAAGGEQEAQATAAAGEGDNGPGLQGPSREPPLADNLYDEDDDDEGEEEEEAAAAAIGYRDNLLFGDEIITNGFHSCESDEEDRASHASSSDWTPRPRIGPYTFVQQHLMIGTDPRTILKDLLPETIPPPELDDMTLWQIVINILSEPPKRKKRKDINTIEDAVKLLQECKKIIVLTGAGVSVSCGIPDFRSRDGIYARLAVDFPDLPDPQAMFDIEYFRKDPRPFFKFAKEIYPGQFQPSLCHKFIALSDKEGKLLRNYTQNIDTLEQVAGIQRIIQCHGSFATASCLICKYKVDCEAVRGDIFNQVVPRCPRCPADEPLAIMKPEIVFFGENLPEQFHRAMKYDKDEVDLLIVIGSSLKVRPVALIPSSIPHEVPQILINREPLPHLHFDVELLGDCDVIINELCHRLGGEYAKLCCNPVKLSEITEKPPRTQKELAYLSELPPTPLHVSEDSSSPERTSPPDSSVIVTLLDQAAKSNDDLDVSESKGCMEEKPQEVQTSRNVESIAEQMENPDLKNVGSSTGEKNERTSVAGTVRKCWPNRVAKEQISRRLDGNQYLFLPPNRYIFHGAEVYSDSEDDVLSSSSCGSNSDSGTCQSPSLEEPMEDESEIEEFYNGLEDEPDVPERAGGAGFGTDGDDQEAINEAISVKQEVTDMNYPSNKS
measurement-protocol: Trp mass spectrometry assay of SIRT1 activation
Format: biochemical
setup-conditions: Trp peptide assay; EC1.5 = concentration that results in 150% activation of SIRT1
Experimental: Mass spectrometry based assays were used to identify modulators of SIRT1 activity. […] The peptide was labeled with the fluorophore STMR (excitation 540 nm/emission 580 nm) at the C-terminus. The sequence of the peptide substrate was based on p53 with several modifications. […] The Trp mass spectrometry assay was conducted as follows. […] Test compound was added at varying concentrations to this reaction mixture and the resulting reactions were monitored. […]
measurement-label: TRP Activity (EC1.5)

Answered cases to consult:
Cc1ccc(-c2ccc3c(n2)N(C(=O)Nc2ccnc(O[C@H]4CCOC4)n2)[C@H]2CCN3C2)cn1 ... B (B (EC1.5 1-25 μM))
C[C@@H]1CN(c2ccc3c(n2)N(C(=O)Nc2cnccn2)[C@H]2CCN3C2)CCN1 ... C (C (EC1.5>25 μM))
O=C(Nc1ccccn1)N1c2nc(N3CC[C@@H](C(F)(F)F)C3)ccc2N2CC[C@H]1C2 ... A (A (EC1.5<1 μM))
Cc1cc(C)c(-c2ccc3c(n2)N(C(=O)Nc2cccnc2)[C@H]2CCN3C2)cn1 ... B (B (EC1.5 1-25 μM))
C[C@H]1CN(c2ccc3c(n2)N(C(=O)Nc2cnccn2)[C@H]2CCN3C2)CCO1 ... B (B (EC1.5 1-25 μM))

For each of the compounds below, state TRP Activity (EC1.5).
1. Cc1cc(NC(=O)N2c3nc(-c4ccnc(C)c4)ccc3N3CC[C@H]2C3)ccn1
2. CCNC(=O)c1ccc2c(n1)N(C(=O)Nc1ccccn1)[C@H]1CCN2C1
3. Cc1cc(-c2ccc3c(n2)N(C(=O)Nc2cnccn2)[C@H]2CCN3C2)cnn1
4. N#Cc1ccc2c(n1)N(C(=O)Nc1cnccn1)[C@H]1CCN2C1
5. Cc1cc(-c2ccc3c(n2)N(C(=O)Nc2cncc(C4CC4)n2)[C@H]2CCN3C2)ccn1

Solution:
B (B (EC1.5 1-25 μM))
A (A (EC1.5<1 μM))
B (B (EC1.5 1-25 μM))
C (C (EC1.5>25 μM))
A (A (EC1.5<1 μM))

For each of the compounds below, state TRP Activity (EC1.5).
1. O=C(Nc1cnccn1)N1c2nc(N3CCOCC3)ccc2N2CC[C@H]1C2
2. Cc1cc(-c2ccc3c(n2)N(C(=O)Nc2cnc4c(c2)OCCO4)[C@H]2CCN3C2)ccn1

Solution:
1: B (B (EC1.5 1-25 μM)); 2: B (B (EC1.5 1-25 μM))
